Assay: Selectivity index, ratio of IC50 for human […] cells to IC50 for Plasmodium falciparum FCR-3
Format: toxicity, cell-based
Conditions: MCR5 cells (cytotoxicity) versus Plasmodium falciparum FCR-3, read-out: Ratio IC50
So I've got a bunch of compounds here, and I need their selectivity ratio values.
Answer with a bare number; do not write a unit.

The reported selectivity ratio of the compound "C[C@@H]1C[C@H](C)C[C@H](C)[C@@H](O)CC(=O)O[C@H]([C@@H]2CCC[C@H]2C(=O)Sc2ccccc2)C/C=C/C=C(/C#N)[C@H](O)[C@@H](C)C1" was 6

Lab note: measured selectivity ratio of "C[C@@H]1C[C@H](C)C[C@H](C)[C@@H](O)CC(=O)O[C@H]([C@@H]2CCC[C@H]2C(=O)OCc2ccccc2)C/C=C/C=C(/C#N)[C@H](O)[C@@H](C)C1" was 198

For reference, reported selectivity ratio for "C[C@@H]1C[C@H](C)C[C@H](C)[C@@H](O)CC(=O)O[C@H]([C@@H]2CCC[C@H]2C(=O)OCCN2CCOCC2)C/C=C/C=C(/C#N)[C@H](O)[C@@H](C)C1" stands at 604

The measured selectivity ratio associated with "COC(=O)[C@@H]1CCC[C@H]1[C@@H]1C/C=C/C=C(/C#N)[C@H](O)[C@@H](C)C[C@H](C)C[C@H](C)C[C@H](C)[C@@H](O)CC(=O)O1" reads 1460

Memo: "CCCOC(=O)[C@@H]1CCC[C@H]1[C@@H]1C/C=C/C=C(/C#N)[C@H](O)[C@@H](C)C[C@H](C)C[C@H](C)C[C@H](C)[C@@H](O)CC(=O)O1" , reported selectivity ratio: 232

# selectivity ratio (compound: "C=CCOC(=O)[C@@H]1CCC[C@H]1[C@@H]1C/C=C/C=C(/C#N)[C@H](O)[C@@H](C)C[C@H](C)C[C@H](C)C[C@H](C)[C@@H](O)CC(=O)O1" ) is 118

The compound identified as "C[C@@H]1C[C@H](C)C[C@H](C)[C@@H](O)CC(=O)O[C@H]([C@@H]2CCC[C@H]2C(=O)NCC(=O)O)C/C=C/C=C(/C#N)[C@H](O)[C@@H](C)C1" registered its selectivity ratio at 1900

Consider "CC[C@H](C)[C@H](NC(=O)[C@@H]1CCC[C@H]1[C@@H]1C/C=C/C=C(/C#N)[C@H](O)[C@@H](C)C[C@H](C)C[C@H](C)C[C@H](C)[C@@H](O)CC(=O)O1)C(=O)O" . Its measured selectivity ratio is 5330

Documented selectivity ratio of "C[C@@H]1C[C@H](C)C[C@H](C)[C@@H](O)CC(=O)O[C@H]([C@@H]2CCC[C@H]2C(=O)OCc2cn(C34CC5CC(CC(C5)C3)C4)nn2)C/C=C/C=C(/C#N)[C@H](O)[C@@H](C)C1" : 16

Measured selectivity ratio of "CCCSC(=O)[C@@H]1CCC[C@H]1[C@@H]1C/C=C/C=C(/C#N)[C@H](O)[C@@H](C)C[C@H](C)C[C@H](C)C[C@H](C)[C@@H](O)CC(=O)O1" : 12

Each recorded value in this set is attributed to ChEMBL document CHEMBL2346607.
